# Test system: Rattus norvegicus
# Procedure Text: Reversal of 2,27-dioxa-11,18,36,43-tetraza-8,21,33,46-tetrazoniaundecacyclo[46.2.2.23,6.213,16.223,26.228,31.238,41.18,11.118,21.133,36.143,46]hexahexaconta-1(50),3,5,8(64),9,13(63),14,16(62),19,21(61),23,25,28,30,33(56),34,38,40,44,46(53),48,51,54,57,59,65-hexacosaene tetrachloride induced neuromuscular block in Sprague-Dawley rat assessed as recovery time at 2.5 mg/kg, iv
# Format: functional
Endpoint Name: Time (s)
Provide the reading as a plain figure in s.

Some molecules with known Time results, for comparison:
{"columns": ["Molecule", "Time / s"],
 "data": [
  ["C[C@]12N3Cc4c(OCCCC(=O)[O-])ccc(OCCCC(=O)[O-])c4CN1C(=O)N1CN4C(=O)N5CN6C(=O)N7CN8C(=O)N9Cc%10c(OCCCC(=O)[O-])ccc(OCCCC(=O)[O-])c%10CN%10C(=O)N(CN%11C(=O)N(CN%12C(=O)N(CN(C3=O)[C@]12C)[C@@H]4[C@H]%125)[C@@H]6[C@H]%117)[C@]8(C)[C@@]9%10C.[Na+].[Na+].[Na+].[Na+]", 411],
  ["C[C@]12N3Cc4c(c(OCCCC(=O)[O-])c5ccccc5c4OCCCC(=O)[O-])CN1C(=O)N1CN4C(=O)N5CN6C(=O)N7CN8C(=O)N9Cc%10c(c(OCCCC(=O)[O-])c%11ccccc%11c%10OCCCC(=O)[O-])CN%10C(=O)N(CN%11C(=O)N(CN%12C(=O)N(CN(C3=O)[C@]12C)[C@@H]4[C@H]%125)[C@@H]6[C@H]%117)[C@]8(C)[C@@]9%10C.[Na+].[Na+].[Na+].[Na+]", 205]
]}

The reported value for `Cc1c(C)c(OCCCC(=O)[O-])c2c(c1OCCCC(=O)[O-])CN1C(=O)N3CN4C(=O)N5CN6C(=O)N7CN8C(=O)N9Cc%10c(c(OCCCC(=O)[O-])c(C)c(C)c%10OCCCC(=O)[O-])CN%10C(=O)N(CN%11C(=O)N(CN%12C(=O)N(CN%13C(=O)N(C2)[C@]1(C)[C@]%133C)[C@@H]4[C@@H]5%12)[C@@H]6[C@@H]7%11)[C@]8(C)[C@]%109C.[Na+].[Na+].[Na+].[Na+]` in terms of Time is 259

According to the records, this molecule `C[C@]12N3Cc4c(c(OCCCS(=O)(=O)[O-])c5ccccc5c4OCCCS(=O)(=O)[O-])CN1C(=O)N1CN4C(=O)N5CN6C(=O)N7CN8C(=O)N9Cc%10c(c(OCCCS(=O)(=O)[O-])c%11ccccc%11c%10OCCCS(=O)(=O)[O-])CN%10C(=O)N(CN%11C(=O)N(CN%12C(=O)N(CN(C3=O)[C@]12C)[C@@H]4[C@H]%125)[C@@H]6[C@H]%117)[C@]8(C)[C@@]9%10C.[Na+].[Na+].[Na+].[Na+]` displays Time of 215

Source listed as ChEMBL document CHEMBL5385912.
